Biological target: bovine beta-2 adrenoceptor (Bos taurus)
Sequence (Q28044 whole entry): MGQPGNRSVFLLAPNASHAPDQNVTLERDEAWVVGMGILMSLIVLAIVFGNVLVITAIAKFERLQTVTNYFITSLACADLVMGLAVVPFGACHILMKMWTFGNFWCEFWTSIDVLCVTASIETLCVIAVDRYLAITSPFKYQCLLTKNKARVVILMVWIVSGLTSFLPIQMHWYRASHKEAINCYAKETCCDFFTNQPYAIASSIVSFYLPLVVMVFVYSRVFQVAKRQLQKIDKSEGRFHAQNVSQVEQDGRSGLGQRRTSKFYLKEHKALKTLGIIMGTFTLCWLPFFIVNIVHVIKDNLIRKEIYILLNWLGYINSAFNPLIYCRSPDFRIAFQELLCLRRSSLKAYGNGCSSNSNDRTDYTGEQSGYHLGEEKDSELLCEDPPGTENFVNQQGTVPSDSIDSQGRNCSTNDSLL
Test: cAMP assay in CHO cells transfected with the bovine beta-2 adrenoceptor
Conditions: cAMP (DiscoveRx Hit Hunter cAMP II) in CHO cells transfected with bovine beta-2 adrenoceptor, 30 minutes with compound, 0.5 mM IBMX
pEC50: −log10 of the molar value.
// label = Y if pEC50 is not less than 8, otherwise N

Request: Determine whether measured pEC50 meets or exceeds 8 for C[C@H](CCc1cccc(Cl)c1O)N[C@@H]1CCn2c(=O)[nH]c3cccc(c32)[C@H]1O (single isomer, unassigned) [Example 5c]
Response: Y

Request: Determine whether measured pEC50 meets or exceeds 8 for CC(CCc1cc(C(F)(F)F)ccc1O)N[C@@H]1CCn2c(=O)[nH]c3cccc(c32)[C@H]1O (mixture of isomers) [Example 31]
Response: N

Request: Determine whether measured pEC50 meets or exceeds 8 for CC(CCc1ccc(C(F)(F)F)cc1)N[C@@H]1CCn2c(=O)[nH]c3cccc(c32)[C@H]1O (mixture of isomers) [Example 18]
Response: N

Request: Determine whether measured pEC50 meets or exceeds 8 for COc1ccc(O)c(CCC(C)N[C@@H]2CCn3c(=O)[nH]c4cccc(c43)[C@H]2O)c1 (mixture of isomers) [Example 21]
Response: Y

Request: Determine whether measured pEC50 meets or exceeds 8 for CC(CCc1ccc(O)cc1)N[C@@H]1CCn2c(=O)[nH]c3cccc(c32)[C@H]1O (single isomer, unassigned) [Example 2d]
Response: Y

----------
Give pEC50 for every item shown.
Target: porcine beta-2 adrenoceptor (Sus scrofa)
Assay: cAMP assay in CHO cells transfected with the porcine beta-2 adrenoceptor
Details: cAMP (DiscoveRx Hit Hunter cAMP II) in CHO cells transfected with porcine beta-2 adrenoceptor, 30 minutes with compound, 0.5 mM IBMX
Scale for pEC50: -log10 of concentration given in mol/L; no unit attached.

Request: Requested field: pEC50. Item: CC(CCc1cc(F)ccc1O)N[C@@H]1CCn2c(=O)[nH]c3cccc(c32)[C@H]1O (single isomer, unassigned) [Example 7a]
Response: 6.98

Request: Requested field: pEC50. Item: COc1ccccc1CCC(C)N[C@@H]1CCn2c(=O)[nH]c3cccc(c32)[C@H]1O (mixture of isomers) [Example 20]
Response: 7.45

Request: Requested field: pEC50. Item: CC(CCc1c(Cl)ccc(O)c1Cl)NC1CCn2c(=O)[nH]c3cccc(c32)C1O (single isomer, unassigned) [Example 55]
Response: 8.57

Request: Requested field: pEC50. Item: C[C@H](CCc1ccc(N)cc1)N[C@@H]1CCn2c(=O)[nH]c3cccc(c32)[C@H]1O (single isomer, unassigned) [Example 45]
Response: 7.68

----------
Biological target: porcine beta-2 adrenoceptor (Sus scrofa, UniProt Q28997)
Sequence (Q28997 whole entry): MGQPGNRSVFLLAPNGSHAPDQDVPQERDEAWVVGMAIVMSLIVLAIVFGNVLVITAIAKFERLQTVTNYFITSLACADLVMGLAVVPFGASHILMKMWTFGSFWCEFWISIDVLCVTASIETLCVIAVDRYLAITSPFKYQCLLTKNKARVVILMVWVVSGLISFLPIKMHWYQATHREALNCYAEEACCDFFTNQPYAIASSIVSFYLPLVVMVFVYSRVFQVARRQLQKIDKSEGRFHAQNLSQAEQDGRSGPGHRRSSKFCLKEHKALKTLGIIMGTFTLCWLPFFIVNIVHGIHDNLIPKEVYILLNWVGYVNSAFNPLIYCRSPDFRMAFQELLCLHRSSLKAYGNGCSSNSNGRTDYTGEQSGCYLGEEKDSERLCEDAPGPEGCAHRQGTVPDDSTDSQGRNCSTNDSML
Experiment: cAMP assay in CHO cells transfected with the porcine beta-2 adrenoceptor
Settings: cAMP (DiscoveRx Hit Hunter cAMP II) in CHO cells transfected with porcine beta-2 adrenoceptor, 30 minutes with compound, 0.5 mM IBMX
Give EC50 for every item shown.

Request: Requested field: EC50. Item: CC(CC(C)(C)c1ccccc1)N[C@@H]1CCn2c(=O)[nH]c3cccc(c32)[C@H]1O (single isomer, unassigned) [Example 14a]
Response: 385 nM

Request: Requested field: EC50. Item: CC(CCc1ccccc1NC(=O)C(F)(F)F)N[C@@H]1CCn2c(=O)[nH]c3cccc(c32)[C@H]1O (single isomer, unassigned) [Example 51]
Response: 11 nM

Request: Requested field: EC50. Item: CC(CCc1ccc(Cl)cc1Cl)N[C@@H]1CCn2c(=O)[nH]c3cccc(c32)[C@H]1O (mixture of isomers) [Example 29]
Response: 6.4 nM

Request: Requested field: EC50. Item: CC(C=Cc1cccc(O)c1)NC1CCn2c(=O)[nH]c3cccc(c32)C1O (stereo not shown) [Example 41]
Response: 6.6 nM

Entry source: patent US20080161288A1
